Test system: Indochina W-2 (parasitic malaria strain)
Experiment: Growth of malaria strain Indochina W-2
Format: cell-based
Conditions: read-out: I50
pIC50: −log10 of the molar value.
Documented pIC50 across a set of compounds

# Compound, pIC50
records = [
    ("CC(=O)Nc1ccnc(C=NNc2ccccn2)c1", 6.30),
    ("Clc1cc(NN=Cc2ccccn2)ncn1", 5.46),
    ("Clc1cccc(C=NNc2ccccn2)n1", 5.05),
    ("NC(=NNc1ccccn1)c1ccccn1", 5.20),
    ("CCC(=NNc1nncc2ccccc12)c1ccccn1", 6.40),
    ("c1ccc(C(=NNc2ccccn2)c2ccccn2)cc1 [PH 22-9, 2-benzoyl pyridine-2'-pyridylhydrazone]", 5.82),
    ("C(=NNc1ccccn1)c1ccccn1 [PH 22, pyridine-2-aldehyde-2'-pyridylhydrazone]", 5.70),
    ("C(=NNc1ccc2ccccc2n1)c1ccccn1 [PQ 22, pyridine-2-aldehyde-2'-quinolylhydrazone]", 5.96),
]
